B1: PLAGL1 (parent)
chain: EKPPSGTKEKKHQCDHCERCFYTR

- Variants of: B1
- Method: protein stability index of a GFP-peptide fusion (GPS, HEK-293T) (PSI 1-6); higher = more stable;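 note: lentivirally expressed fusions sorted by FACS into six bins by GFP to DsRed ratio, PSI derived from sequencing read proportions per bin multiplied by bin number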
- Test settings: c terminus: a fixed tail appended
Entries and their protein stability index

stdin: I'd like to know its protein stability index. The variant in question is P4W
stdout: 2.96

stdin: I'd like to know its protein stability index. The variant in question is S5L
stdout: 3.75

stdin: I'd like to know its protein stability index. The variant in question is P3I
stdout: 3.58

stdin: I'd like to know its protein stability index. The variant in question is D15W
stdout: 3.15

stdin: I'd like to know its protein stability index. The variant in question is C17F
stdout: 3.4

stdin: I'd like to know its protein stability index. The variant in question is T23F
stdout: 3.97

stdin: I'd like to know its protein stability index. The variant in question is D15A
stdout: 3.75

stdin: I'd like to know its protein stability index. The variant in question is P4I
stdout: 3.57

stdin: I'd like to know its protein stability index. The variant in question is T23L
stdout: 4.64

stdin: I'd like to know its protein stability index. The variant in question is E9G
stdout: 3.75

stdin: I'd like to know its protein stability index. The variant in question is T7D
stdout: 3.77

stdin: I'd like to know its protein stability index. The variant in question is T7S
stdout: 3.54
